Source of measurements: patent US7199131B2

Field: minimal effective concentration. Provide a value for each of the molecules that follow.
tested on: tumor necrosis factor (α); assay: Cytokine Induction in Human Cells: tumor necrosis factor (α) secreted by PBMCs, ELISA; assay type: cell-based; details: PBMC, incubated 18 to 24 hours, lowest concentration found to induce tumor necrosis factor
API: value field is a number in µM; no unit string.

Query: Could you tell me which minimal effective concentration is on file for COCCc1nc2c(N)nc3ccccc3c2n1CCCNS(=O)(=O)c1cccc2c(N(C)C)cccc12 [Example 257] ?
Reply: 3.33

Query: Could you tell me which minimal effective concentration is on file for CCCCc1nc2c(N)nc3ccccc3c2n1CCCNS(=O)(=O)c1ccc(C)cc1 [Example 246] ?
Reply: 3.33

Query: Could you tell me which minimal effective concentration is on file for COCCc1nc2c(N)nc3ccccc3c2n1CC(C)(C)CNS(C)(=O)=O [Example 256] ?
Reply: 0.04

###

readout_type: melting point

Query: Could you tell me which melting point is on file for COCCc1nc2c(N)nc3ccccc3c2n1CCCCCCCCNS(=O)(=O)c1ccccc1 [Example 242] ?
Reply: 146 to 149 °C

Query: Could you tell me which melting point is on file for CCCCc1nc2c(N)nc3ccccc3c2n1CCCCNS(=O)(=O)Cc1ccccc1 [Example 4] ?
Reply: 197 to 199.5 °C

Query: Could you tell me which melting point is on file for CCCCc1nc2c(N)nc3ccccc3c2n1CCNS(=O)(=O)c1ccc(C)cc1 [Example 264] ?
Reply: 187 to 188 °C

Query: Could you tell me which melting point is on file for CCS(=O)(=O)NCCCCn1c(C)nc2c(N)nc3ccccc3c21 [Example 269] ?
Reply: 210.7 to 211.6 °C

Query: Could you tell me which melting point is on file for COCCc1nc2c(N)nc3ccccc3c2n1CCCCN1CCCS1(=O)=O [Example 266] ?
Reply: 156.4 to 157.7 °C

Query: Could you tell me which melting point is on file for CCCCc1nc2c(N)nc3ccccc3c2n1CCCNS(C)(=O)=O [Example 239] ?
Reply: 239.2 to 240.8 °C

Query: Could you tell me which melting point is on file for CS(=O)(=O)NCCCCCCCCn1cnc2c(N)nc3ccccc3c21 [Example 252] ?
Reply: 153 to 155 °C

Query: Could you tell me which melting point is on file for Cc1nc2c(N)nc3ccccc3c2n1CCCCNS(C)(=O)=O [Example 238] ?
Reply: 229.4 to 230.5 °C

Query: Could you tell me which melting point is on file for COCCc1nc2c(N)nc3ccccc3c2n1CCCNS(=O)(=O)c1cccc2c(N(C)C)cccc12 [Example 257] ?
Reply: 210 to 215 °C
